Test system: PANC-1
METHOD NOTES: Antiproliferative activity against human PANC1 cells after 48 hrs by MTT assay
Format: functional, cell-based
REPORTED CONDITIONS: PANC-1, 48 h
MEASURED ATTRIBUTE: IC50 (µM)
One number for each entry, in µM.

1) COc1ccc(-c2c(Nc3cccc(C(F)(F)F)c3)c3ccccc3oc2=O)cc1 :: 49.1
2) COc1ccc(-c2c(Nc3cc(OC)c(OC)c(OC)c3)c3ccccc3oc2=O)cc1 :: 77.6
3) COc1ccc(-c2c(Nc3ccc(C)c(O)c3)c3ccc(OC)cc3oc2=O)cc1 :: 31.3
4) COc1ccc(-c2c(Nc3ccc4c(c3)OCO4)c3ccc(O)cc3oc2=O)cc1 :: 48.2

Batch request: IC50 for each of the following molecules.
1. COc1ccc(Nc2c(-c3ccc(OC)cc3)c(=O)oc3ccccc23)cc1
2. COc1ccc(-c2c(Nc3ccc(C)cc3)c3ccccc3oc2=O)cc1
3. COc1ccc2oc(=O)c(C(=O)C(F)(F)F)c(Nc3ccc4c(c3)OCO4)c2c1
4. O=c1[nH]cc(F)c(=O)[nH]1
5. COc1ccc(-c2c(Nc3cccc(C(F)(F)F)c3)c3ccc(O)cc3oc2=O)cc1

[37.5, 66.1, 5.16, 47.8, 67.2]
